# System: MS2 coat protein
# Assay remarks: apparent KD of MS2 coat protein, switch ON state; designed switch direction (-1 OFF switch, 1 ON switch): -1; higher = weaker reporter binding
# Condition description: FMN input: 0 or 200 uM; Eterna round: R93 (includes R88 designs)
Assign class by apparent KD of MS2 coat protein: not lower than 40 nM means MET; lower than 40 nM means NOT MET.

• AAGAAAGGAGGAUAUACAAAAUAAAAGAAAAGAAAGAAAGAACAUGAGGAUCACCCAUGUAGAAGGCCUAAGAA [Merhotepre Sobekhotep V] = NOT MET
• GGCUAGUCAGGAUAUACGAACAUGUCAAAAGACGUGAAGGGACAUGAGGAUCACCCAUGUAGAAGGGACUAGCG [salish99-ex2-13] = NOT MET
• AUCUUGUGAGGAUAUGCAUGAAAUGAAGUGAAAGAAAAGAAGCAGAAGGCACAUGAGGAUCACCCAUGUUAGAA [EteRNA is fun!] = NOT MET

Problem: Does AAAAAGUGAGGAUAUUCGGAUAGGAAAACGAAAACCUAUCCGAAGAAGGCACAUGAGGAUCACCCAUGUAAAAA [67% Ecls-II - Early G segment 1] have a reported apparent KD of MS2 coat protein of at least 40 nM?
Solution: NOT MET

Problem: Now consider AAAACUAGAGGAUAUACGAACAUGUCAAAAGACGUGAAGGGACAUGAGGAUCACCCAUGUAGAAGGCUAGAAAA [JL Stem Breaker 11] .
Solution: MET

====

# Test system: MS2 coat protein
# Assay remarks: apparent KD of MS2 coat protein; designed switch direction (-1 OFF switch, 1 ON switch): -1; higher = weaker reporter binding
# Condition description: Eterna round: R95; input ligand: none
Assign class by apparent KD of MS2 coat protein: not lower than 40 nM means Criterion met; lower than 40 nM means Criterion not met.

As a guide, the following entries are already answered.
• GAUUAUGCGAGCUUUAGGGACAUGAGGAUCACCCAUGUUCGUCUUAUUGGUCUAGGUGCACUAACAUACCUAAAUCU [JMF 36] (puzzle: Sensor v3, turn-off variant 1) = Criterion not met
• GAAAAGGUAGGAUAUACGAAAAAAAAGGAUAGAAAAAAAACACAUGAGGAUCACCCAUGUAGAAGGACCAAAAG [salish99_ex2_r3_066] (puzzle: Exclusion 2) = Criterion not met
• UACCGGCGGACCGAGGCUUUUUGCUCGUCUUGUACUACAACAUGAGGAUCACCCAUGUGGUGGUGGUCCGUUGUAGU [JL ViennaUCT Bitein mod 6] (puzzle: Sensor v3, turn-off variant 2) = Criterion not met
• AAAAGAGUAGGAUAUCUGACGCGAAACAUGAGGAUCACCCAUGUAGGGCGGUCCUGCUUAAGAGAAGGGCUCUAAU [Arorxebile] (puzzle: Exclusion 5) = Criterion met
• GAUUGACAUGAGGAUCACCCAUGUGAGGAUAUCGGCUGGACCGUGUUGGCUUGCUUUCCGAGAAGGCGCAUAGG [Exclusion 1 V50] (puzzle: Exclusion 1) = Criterion met
• AAUAAUGGAGGAUAUACAUGAGGAUCACCCAUGUGAAUAAAAUAAAUAAAAUGAUAAAGUAGAAGGCCAAAUAA [JMF's solution 2] (puzzle: Exclusion 3) = Criterion met
• GAGAAGGUAGGAUAUACGAAUAAAUAGGGUAGGAAGAAGACACAUGAGGAUCACCCAUGUAGAAGGACCAAGAG [Mat - Exclusion 2 - Mod of my Tesla design - D36] (puzzle: Exclusion 2) = Criterion not met
• AGUAACUAUCACGAAAGUGAUAGUUACAGCAAGUGAUAAACAUGAGGAUCACCCAUGUCCUCAUUUGCUCGUCUUAU [Sensor 3 - 12] (puzzle: Sensor v3, turn-off variant 2) = Criterion not met
• CUGAUGUCAGGAUAUCAGAAAAGGCACAAGAACGCGCCAAAUGAGAAGGGACAUGAGGAUCACCCAUGUAAAAC [Reena] (puzzle: Exclusion 4) = Criterion not met
• GGUUGGCGAGGAUAUACAUGAGGAUCACCCAUGUGAGAAAAUAAGUGAGGAAAGAAAAGUAGAAGGCGCUGACG [Mat - Exclusion 3 - Mod of Salish D53] (puzzle: Exclusion 3) = Criterion not met

Problem: Does AGUACUAACACGAGAGUGUUAGUACAAUAAGCUUGUGAAACAUGAGGAUCACCCAUGUCCUCAUAAGCUCGUCUUAU [salish99_TOv2_r3_029] (puzzle: Sensor v3, turn-off variant 2) have a reported apparent KD of MS2 coat protein of at least 40 nM?
Solution: Criterion not met
